- System: T1, human CXCR4 (chemokine receptor 4) on CCRF-CEM cells (human, UniProt P61073 1-352)
- T1 construct: whole, on cells; also called hCXCR4
- T1 sequence (P61073 whole entry): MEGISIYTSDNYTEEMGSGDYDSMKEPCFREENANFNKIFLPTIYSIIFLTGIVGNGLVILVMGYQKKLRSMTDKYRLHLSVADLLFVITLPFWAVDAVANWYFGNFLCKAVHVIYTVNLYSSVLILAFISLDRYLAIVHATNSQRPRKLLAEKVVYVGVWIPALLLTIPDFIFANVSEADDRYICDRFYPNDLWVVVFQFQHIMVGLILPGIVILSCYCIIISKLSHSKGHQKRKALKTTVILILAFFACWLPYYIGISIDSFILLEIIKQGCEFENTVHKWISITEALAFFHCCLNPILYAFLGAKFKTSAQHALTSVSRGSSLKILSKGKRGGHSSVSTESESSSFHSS
- Method notes: displacement of [125I]CXCL12 from CXCR4-expressing CCRF-CEM cells, gamma counting
pIC50: −log10 of the molar value. Bridges are numbered along the chain shown (N, C = ends). [ ]: non-standard residue; d: D form. The star is where a group is joined. AMBHA = 6-(4-(aminomethyl)benzamido)hexanoic acid linker, NCc1ccc(C(=O)NCCCCCC(=O)*)cc1; DOTA = O=C(O)CN1CCN(CC(=O)O)CCN(CC(=O)*)CCN(CC(=O)O)CC1; NOTA = O=C(O)CN1CCN(CC(=O)O)CCN(CC(=O)*)CC1; 2Nal = N[C@@H](Cc1ccc2ccccc2c1)C(=O)O; Fmoc = O=C(OCC1c2ccccc2-c2ccccc21)*; Pen = CC(C)(S)[C@H](N)C(=O)O
Measured property: pIC50

Binder	Reported
{NOTA-AMBHA}-RA[dC]R[2Nal]H[Pen]-OH (disulfide 3-7, also called NOTA-Ahx-R54; NOTA-R54) [NOTA-AMBHA-R54]	7.44

P: {Fmoc-AMBHA}-RA[dC]R[2Nal]H[Pen]-OH (disulfide 3-7) [Fmoc-AMBHA-R54]
Q: {DOTA-AMBHA}-RA[dC]R[2Nal]H[Pen]-OH (disulfide 3-7, also called DOTA-Ahx-R54; DOTA-R54) [DOTA-AMBHA-R54]
Q: Lab note: check whether P or Q shows the higher recorded pIC50. Could you answer with the label of the item you picked?
Result: P
(P: 7.41, Q: 6.97)
